Data provenance: the supplement of paper PMC13380429

In this section, each of the compounds is paired with its reported cell viability.
Tested on: Calu-3
Procedure Summary: cell viability relative to DMSO; higher = less toxic
Details: 72 h; 10 nM
Field: numeric (%). Do not append units.

>  <Compound>
O=C(NC1(c2ccccc2)CC1)c1c(CN2CCC(N3CCCCC3)CC2)c(-c2cccc(C(F)(F)F)c2)nc2cc(Br)ccc12

>  <Target Desc>
Calu-3

>  <cell viability / %>
90.2

$$$$
>  <Compound>
N#C[C@H](O[C@@H]1O[C@H](CO[C@@H]2O[C@H](CO)[C@@H](O)[C@H](O)[C@H]2O)[C@@H](O)[C@H](O)[C@H]1O)c1ccccc1 [amygdalin]

>  <Target Desc>
Calu-3

>  <cell viability / %>
105

$$$$
>  <Compound>
N=C1CCCN1Cc1[nH]c(=O)[nH]c(=O)c1Cl [tipiracil]

>  <Target Desc>
Calu-3

>  <cell viability / %>
102

$$$$
>  <Compound>
Cc1nc2ccc(Oc3ccc(F)cc3)cc2c(=O)n1C[C@H]1CCCN(C(C)C)C1 [YIL-781]

>  <Target Desc>
Calu-3

>  <cell viability / %>
88.2

$$$$
>  <Compound>
C[C@@H](N)Cc1c[nH]c2ccc(O)cc12 [alpha-methylserotonin]

>  <Target Desc>
Calu-3

>  <cell viability / %>
99.1

$$$$

Consider the compound shown here: CO[C@H]1/C=C\C=C(/C)C(=O)NC2=CC(=O)C(NCCN(C)C)=C(C[C@@H](C)C[C@H](OC)[C@H](O)[C@@H](C)/C=C(\C)[C@@H]1OC(N)=O)C2=O [alvespimycin] What is its recorded cell viability?
88.4

Consider the compound shown here: `O=C(NCC1(N2CCN(c3ccccc3)CC2)CCOCC1)c1cccnc1Sc1ccccc1` What is its recorded cell viability?
106

====

In this section, each of the compounds is paired with its reported cell viability.
Test system: HepG2
Procedure Summary: cell viability relative to DMSO; higher = less toxic
Details: 72 h; 10 nM
Your answer should be a number followed by the unit of measure.

Example cases with answers are listed next.
>  <Compound>
CCC(=O)OCC(=O)[C@@]1(OC(=O)CC)[C@@H](C)C[C@H]2[C@@H]3CCC4=CC(=O)C=C[C@]4(C)[C@@]3(Cl)[C@@H](O)C[C@@]21C [beclomethasone-dipropionate]

>  <Result>
95.7%

$$$$
>  <Compound>
O=C1Nc2ccc(Cl)cc2[C@@](C#CC2CC2)(C(F)(F)F)O1

>  <Result>
86.1%

$$$$
>  <Compound>
O=C1CCC2CCC(=O)N12

>  <Result>
104%

$$$$
>  <Compound>
C[N+]1(C)CCC(OC(=O)C(O)(c2ccccc2)C2CCCC2)C1 (configuration not stated) [glycopyrrolate]

>  <Result>
99.3%

$$$$
>  <Compound>
COc1ccc(-c2ccc(=N)n(CCCC(=O)O)n2)cc1

>  <Result>
97%

$$$$

Consider the compound shown here: `NS(=O)(=O)c1nn2cc(-c3ccccc3)nc2s1` What is its recorded cell viability?
90.2%

Consider the compound shown here: `CCN(CC)Cc1ccc2cc(COC(=O)Nc3ccc(C(=O)NO)cc3)ccc2c1` What is its recorded cell viability?
102%

Consider the compound shown here: `Cc1nccc2c1[nH]c1ccccc12` What is its recorded cell viability?
96.2%

Consider the compound shown here: `Oc1ccc(-c2nc3cc(O)cc(Br)c3o2)cc1` What is its recorded cell viability?
102%

Consider the compound shown here: `COc1cc(C(=O)OCCCN2CCCN(CCCOC(=O)c3cc(OC)c(OC)c(OC)c3)CC2)cc(OC)c1OC` What is its recorded cell viability?
89.5%

Consider the compound shown here: `c1ccc(CC2=NCCN2)cc1` What is its recorded cell viability?
102%

Consider the compound shown here: `CCn1c(=O)n([C@H]2CCCN(c3nccc(-c4cc5ccccc5o4)n3)C2)c2ccccc21` What is its recorded cell viability?
103%

Consider the compound shown here: `CCC(=O)Nc1cccc(Oc2nc(Nc3ccc(N4CCN(C)CC4)cc3OC)ncc2Cl)c1` What is its recorded cell viability?
94.3%

Consider the compound shown here: S=C=Nc1ccc(N=C=S)cc1 [bitoscanate] What is its recorded cell viability?
82.6%

Consider the compound shown here: `CC[C@@H](C(=O)[C@@H](C)[C@@H](O)[C@H](C)[C@@H]1O[C@@H]([C@@H](CC)C(=O)O)CC[C@@H]1C)[C@H]1O[C@]2(C=C[C@@H](O)[C@]3(CC[C@@](C)([C@H]4CC[C@](O)(CC)[C@H](C)O4)O3)O2)[C@H](C)C[C@@H]1C` What is its recorded cell viability?
108%

Consider the compound shown here: `Oc1ccc2c(c1)CC[C@H](c1ccccc1)[C@@H]2c1ccc(OCCN2CCCC2)cc1` What is its recorded cell viability?
97.3%

Consider the compound shown here: `CC(C)(C)C[C@@H]1N[C@@H](C(=O)N[C@H]2CC[C@H](O)CC2)[C@H](c2cccc(Cl)c2F)[C@]12C(=O)Nc1cc(Cl)ccc12` What is its recorded cell viability?
95.8%

====

Test system: Vero E6
Procedure Summary: cell viability relative to DMSO; higher = less toxic
Details: 72 h; 100 nM
Measurement Kind: cell viability
Your answer should be a number followed by the unit of measure.

Example cases with answers are listed next.
>  <Compound>
COc1cc(OC)c2c(=O)[nH]c(-c3cc(C)c(OCCO)c(C)c3)nc2c1 [apabetalone]

>  <cell viability>
105%

$$$$
>  <Compound>
CC[C@H](C)[C@H](N)C1=N[C@H](C(=O)N[C@@H](CC(C)C)C(=O)N[C@H](CCC(=O)[O-])C(=O)N[C@H](C(=O)N[C@H]2CCCCNC(=O)[C@H](CC(N)=O)NC(=O)[C@@H](CC(=O)[O-])NC(=O)[C@H](Cc3cnc[nH]3)NC(=O)[C@@H](Cc3ccccc3)NC(=O)[C@H]([C@@H](C)CC)NC(=O)[C@@H](CCCN)NC2=O)[C@@H](C)CC)CS1.[Zn+2] [bacitracin-zinc]

>  <cell viability>
100%

$$$$
>  <Compound>
O=C(c1ccc(Nc2nccc(-c3cc4ccccc4s3)n2)cc1)N1CCC(N2CCCC2)CC1 [IKK-16]

>  <cell viability>
99.5%

$$$$
>  <Compound>
C#C[C@]1(O)CC[C@H]2[C@@H]3CCC4=CC(=O)CC[C@@H]4[C@H]3C(=C)C[C@@]21CC [etonogestrel]

>  <cell viability>
95.6%

$$$$
>  <Compound>
C[C@]12CC[C@H]3[C@@H](CCC4=CC(=O)CC[C@@H]43)[C@@H]1CC[C@@H]2O [Nandrolone]

>  <cell viability>
89.9%

$$$$

Consider the compound shown here: CC[N+](CC)(CCNC(=O)C(=O)NCC[N+](CC)(CC)Cc1ccccc1Cl)Cc1ccccc1Cl [ambenonium] What is its recorded cell viability?
97.9%

Consider the compound shown here: Cc1ccc([N+](=O)[O-])cc1S(=O)(=O)N(C)/N=C/c1cnc2ccc(Br)cn12 [PIK-75] What is its recorded cell viability?
69.7%

Consider the compound shown here: COc1ccc(OC)c(CN(C(C)=O)c2cc(F)ccc2Oc2ccccc2)c1 [DAA-1106] What is its recorded cell viability?
103%

====

Tested on: HepG2
Procedure Summary: relative viability EC50 (midpoint between 100% and the lowest measured viability); higher = less toxic
Details: 72 h
Measurement Kind: relative viability EC50

Consider the compound shown here: CCc1ccc(OCc2ccccc2C(=O)Nc2ccc3nc(C)cc(N)c3c2)cc1 [JTC-801] What is its recorded relative viability EC50?
2.25 µM

Consider the compound shown here: CN[C@H](C(=O)N[C@H](C(=O)N(C)[C@H](/C=C(\C)C(=O)O)C(C)C)C(C)(C)C)C(C)(C)c1ccccc1 [taltobulin] What is its recorded relative viability EC50?
0.0012 µM

Consider the compound shown here: CO/N=C1/C[C@@H](C(=O)NC[C@@H](O)c2ccccc2)N(C(=O)c2ccc(-c3ccccc3C)cc2)C1 [OT-R-antagonist-1] What is its recorded relative viability EC50?
> 10 µM

Consider the compound shown here: CC(N)CCCC(C)(C)O (stereo not drawn) [heptaminol] What is its recorded relative viability EC50?
> 10 µM

====

Tested on: Vero E6
Procedure Summary: drug sensitivity score (DSS) for viability; higher = more toxic; extreme values may be limits of the assay
Details: 72 h
Measurement Kind: drug sensitivity score
API note: the answer field is a bare number with no unit suffix.

Example cases with answers are listed next.
>  <Compound>
COc1c(C)c2c(c(O)c1C/C=C(\C)CCC(=O)O)C(=O)OC2 [mycophenolic-acid]

>  <Number>
6.7

$$$$
>  <Compound>
Cn1cc(C(F)(F)F)nc1-c1ccc(OCC(O)CNCCOc2ccc(O)c(C(N)=O)c2)cc1 (stereo unspecified)

>  <Number>
0

$$$$
>  <Compound>
C[C@]12CCC(=O)C=C1[C@@H]1C[C@@H]1[C@H]1[C@@H]3[C@@H]4C[C@@H]4[C@@]4(CCC(=O)O4)[C@@]3(C)CC[C@@H]12 [drospirenone]

>  <Number>
0

$$$$

For the next question, use this compound.
Consider the compound shown here: O=C(c1ccc(Nc2nccc(-c3cc4ccccc4s3)n2)cc1)N1CCC(N2CCCC2)CC1 [IKK-16] What is its recorded drug sensitivity score?
5.9
